Each record here notes measured GI50.
Test system: ACHN renal
Test details: NCI tumour cell line growth inhibition, 48 h

Worked set:
Cc1ccccc1NC(=O)c1cc2ccccc2cc1O : 3.17 µM
O=C(Cn1c2ccccc2c2ccncc21)N/N=C\c1ccc2ccccc2c1 : 19.3 µM
Cc1cn(Cc2ccccc2CCl)c(=O)n(Cc2ccccc2CCl)c1=O : 1.66 µM
COC(=O)Nc1nc2ccc(S(=O)(=O)c3ccc(NC(=O)Nc4cc(C(F)(F)F)ccc4F)cc3)cc2[nH]1 : > 25 µM
Nc1cc(-c2ccccc2)n(C(=O)Nc2ccc(Oc3ccccc3)cc2)n1 : 34.9 µM

Query :: Entry O=C1c2ccn(CCCCN(CCO)CCO)c2C(=O)c2c1c(O)c1ccccc1c2O needs its GI50 filled in; supply it.
Result :: 21.6 µM

Query :: Entry CN(CCCN(C)CCC1CCCCC1)CCC1CCCCC1 needs its GI50 filled in; supply it.
Result :: 4 µM

Query :: Entry O=[N+]([O-])c1cc2c(ccc3occc32)o1 needs its GI50 filled in; supply it.
Result :: 0.561 µM

---

Test system: PC-3 prostate
Test details: NCI tumour cell line growth inhibition, 48 h
Each record here notes measured TGI.

CC(=O)NC1C(OCc2ccccc2)OC(CO)C(O)C1OCC(=O)N1CCCC1C(=O)NC(CCC(=O)NCCCCCNc1c2ccccc2nc2cccc([N+](=O)[O-])c12)C(N)=O (centres undefined) : 0.0293 µM

Query :: Fetch value of TGI on PC-3 prostate for COC(=O)[C@@H]1[C@H](O)CC[C@H]2[C@@]1(C)CC[C@@H](C)[C@]2(COC(C)=O)CC(=O)c1ccoc1 .
Result :: > 50 µM

Query :: Fetch value of TGI on PC-3 prostate for CC1=C(C(=O)NC(C)(C)C)CC(C(=O)NC(C)(C)C)C(C)N1 (centres undefined) .
Result :: > 100 µM

Query :: Fetch value of TGI on PC-3 prostate for O=c1oc2c(ccc3c(O)cccc32)c2c1CCCC2 .
Result :: > 100 µM

---

System: HCT-15 colon
Test details: NCI tumour cell line growth inhibition, 48 h
Measured quantity: TGI

Worked set:
CNC(=O)c1cncc(/C=C/c2c(Cl)cccc2Cl)c1 : > 25 µM
CNc1ncc2cc(Oc3ccc(F)cc3F)c(=O)n(C)c2n1 : > 25 µM
CC[C@H](C)[C@H]1NC(=O)[C@@H](NC(=O)[C@@H](CC(C)C)N(C)C(=O)C2CCCN2C(=O)[C@H](C)O)[C@@H](C)OC(=O)[C@H](Cc2ccccc2)N(C)C(=O)[C@@H]2CCCN2C(=O)[C@H](CC(C)C)NC(=O)[C@@H](C)C(=O)[C@H](C(C)C)OC(=O)C[C@@H]1O (some centres undefined) : 0.556 µM

// next item, TGI requested
Query :: Entry COc1cccc(C(=O)N[C@@H]2[C@H](O)[C@@H](CO)O[C@H]2n2cnc3c(N)ncnc32)c1 needs its TGI filled in; supply it.
Result :: > 100 µM

---

Tested on: RXF 393 renal
Test details: NCI tumour cell line growth inhibition, 48 h
*1 amine or outer side, *2 acyl side, *3 side chain or, on linkers, in order; H or OH if unused. Where a SMILES comes first, the peptide text is derived from it. [ ]: non-standard residue; d: D form. The star is where a group is joined. X31 = CC(=O)N(C)SCC(N[*:1])C(=O)[*:2]; Fmoc = O=C(OCC1c2ccccc2-c2ccccc21)*; For = O=C*
Measured quantity: TGI (µM)
Give the number; µM is assumed, so skip it.

Worked set:
COc1cc2c(cc1OCCCCCn1c3ccccc3c3ccccc31)N=C[C@@H]1CCCN1C2=O : 16.4
CC(=O)N(C)SCC(NC(=O)C(Cc1ccccc1)NC(=O)OCC1c2ccccc2-c2ccccc21)C(=O)NC(Cc1ccccc1)C(=O)NC(Cc1cn(C=O)c2ccccc12)C(=O)NC(CCCCNC(=O)OCC1c2ccccc2-c2ccccc21)C(=O)NC(C(=O)NC(CSN(C)C(C)=O)C(=O)NC(C(N)=O)C(C)O)C(C)O (stereo unspecified) (Fmoc-F[X31]FW(For)K(Fmoc)T[X31]T-NH2; configuration not given here) : 72.3

// next item, TGI requested
Query :: Entry Cc1cc(Cl)ccc1Nc1nc(C(F)(F)F)ccc1C(=O)Nc1cccc(C(F)(F)F)c1 needs its TGI filled in; supply it.
Result :: 27.5

The reported numbers originate from PubChem BioAssay (NCI).
